biological target: Type-1 angiotensin II receptor (Homo sapiens); test: AT1 receptor antagonists, dose response, selectivity assay for APJ receptor antagonist project, cell-based, uHTS hits (AID 463214); format: functional;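 note: antagonist potency against angiotensin II stimulated AT1 response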
Sequence (P30556 whole entry): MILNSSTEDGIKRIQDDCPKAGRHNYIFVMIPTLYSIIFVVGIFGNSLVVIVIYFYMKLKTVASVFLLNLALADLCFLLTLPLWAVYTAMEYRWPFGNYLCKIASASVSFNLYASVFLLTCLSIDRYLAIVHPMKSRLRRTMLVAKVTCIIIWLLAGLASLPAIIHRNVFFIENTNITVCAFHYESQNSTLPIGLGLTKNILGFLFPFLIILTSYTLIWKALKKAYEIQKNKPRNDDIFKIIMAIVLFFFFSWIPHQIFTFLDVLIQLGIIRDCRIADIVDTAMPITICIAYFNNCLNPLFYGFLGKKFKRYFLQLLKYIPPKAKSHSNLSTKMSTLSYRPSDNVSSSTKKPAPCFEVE
Active and inactive are the calls of the source.
Measured endpoint: IC50

• Cc1cccc(NC2=c3cccc(Cl)c3=NC2=O)c1 = > 40 µM (not active)
• COc1cccc(/C=C/c2ccc3cccc(O)c3n2)c1 = 15.1 µM (active)
• Nc1c(N2CCCC2)c2ccccc2oc1=O = 13.7 µM (active)

May I ask what IC50 has been recorded for Cc1ccc2nc(C)cc(C(=O)OCC(=O)c3ccc(Cl)c([N+](=O)[O-])c3)c2c1 ?
13.2 µM (active)

* * *

Here the recorded AC50 is given for each entry.
experiment: P. falciparum Dd2 growth inhibitors, dose response, SYBR Green, cherry-picked samples (AID 1159567); format: functional, cell-based
Calls of active or inactive are those of the source.

* COc1cccc(-c2cccc(-c3nc(C(=O)NCc4ccc(Oc5ccccc5)cc4)cc4c3[C@@H](CCO)N([S+]([O-])C(C)(C)C)C4)c2)c1 (stereo not given in full) | 671 nM (active)

Now, please, on to the next molecule.
So what's the measured AC50 for this one? OC[C@@H]1CC[C@@H]2O[C@H](CCc3ccc(-c4ccc(F)cc4)cc3)[C@H](n3cc(C4CC4)nn3)C[C@@H]2O1
7670 nM (active)

* * *

target: Corticotropin-releasing factor receptor 2/Corticotropin-releasing factor-binding protein (Homo sapiens, UniProt P24387+Q13324); experiment: activators of CRF receptor 2 with binding protein – uHTS hits, confirmation (AID 602473); assay type: functional; settings: read-out: EC50_Mean
The source made the active and inactive calls.
Could you please pick one outcome from this set? Y = active, N = inactive

Example results:
• CCOc1ccccc1NC(=O)CNC(=O)Cc1ccccc1 = N
• CC(=O)NC(Cc1ccc(C(C)C)cc1)C(=O)NC1CCN(C(=O)c2cccc(C)c2)CC1 (stereo not given) = N
• CC1(O)c2ccccc2C(=O)N1CCc1ccccc1F (stereo not given) = N
• CCN(CC)c1ccc(/C=C2\CCC(/C=N/NC(=O)c3ccc(=O)n(C)c3)=C2N2CCOCC2)cc1 = Y

Kindly review the next molecule as well.
Name the outcome recorded for COCCCn1c(SCC(=O)Nc2ccccc2F)nnc1-c1ccoc1C in the assay.
N

* * *

target: Galanin receptor type 3 (Homo sapiens, UniProt O60755); assay: Fluorescence-based cell-based primary high throughput dose response assay to identify antagonists of the Galanin Receptor 3 (GalR3).; assay type: functional
Sequence (O60755 whole entry): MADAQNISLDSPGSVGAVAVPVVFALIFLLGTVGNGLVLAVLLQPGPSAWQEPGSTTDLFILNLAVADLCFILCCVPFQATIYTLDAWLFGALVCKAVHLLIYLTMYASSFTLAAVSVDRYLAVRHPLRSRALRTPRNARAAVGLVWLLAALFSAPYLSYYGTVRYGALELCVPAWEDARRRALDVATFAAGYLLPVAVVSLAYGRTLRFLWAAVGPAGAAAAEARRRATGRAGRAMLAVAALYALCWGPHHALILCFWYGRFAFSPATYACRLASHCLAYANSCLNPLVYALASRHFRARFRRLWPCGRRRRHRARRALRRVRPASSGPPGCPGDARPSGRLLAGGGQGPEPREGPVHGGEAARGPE
Activity calls are given as the source filed them.
Log the outcome using a class from 1 for active, -1 for inactive

• COc1ccc(C2CC(=O)Nc3sc(=N)c4c(N)c(C#N)c(N)nc4c32)cc1OC (centres undefined) = 1
• O=C(COc1ccc2ccccc2c1)Nc1ccncc1 = 1
• O=C(NCCO)c1nsnc1NCCCl = -1

Next item in the queue.
State the result this test recorded for CC1(C)CC2CC(C)(CN2S(=O)(=O)c2ccc(C(=O)Nc3cccc(S(=O)(=O)N4CCOCC4)c3)cc2)C1 (centres undefined) .
1

* * *

assay: inhibitors of intracellular T. cruzi replication, confirmation, NIH3T3 host cells, beta-gal luminescence (AID 2044); assay type: functional, cell-based;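 note: intracellular parasites grown in NIH/3T3 mouse fibroblasts as host cells; luminescent beta-galactosidase reporter signal from transgenic T. cruzi replicating inside host cells; inhibitors lower the luminescence signal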
The source made the active and inactive calls.
# EC50 annotations

// solved cases for EC50 follow
• CCOC(=O)c1cnc(-n2nc(C)cc2C)nc1NCCc1ccccc1 = 2040 nM (active)
• CC(=O)c1sc2nc(-c3ccccc3)cc(C)c2c1N = 638 nM (active)
• CCOC(=O)c1c(NC(=O)Cn2cnc([N+](=O)[O-])n2)sc(C)c1C = 191 nM (active)
• COc1ccc(C(=O)OC2CCN(C)CC2)cc1 = < 100 nM (active)
• O=C(Nc1nc(-c2ccccc2)cs1)C1CCCN(S(=O)(=O)c2ccccc2)C1 (configuration not stated) = 2680 nM (active)

Which EC50 is listed for O=C(NCCC1=CCCCC1)c1ccc2c(c1)N(Cc1ccccc1)C(=O)CS2 ?
2880 nM (active)

Look up EC50: Cc1ccc(CN2CCN(/N=C/c3ccc(Cl)c([N+](=O)[O-])c3)CC2)cc1
1310 nM (active)

Would you mind telling me what EC50 value was observed for Cc1cc([N+](=O)[O-])ccc1NC(=O)Nc1ccc(F)cc1F ?
4360 nM (active)

* * *

target: Peroxisome proliferator-activated receptor gamma/Nuclear receptor coactivator 2 (Homo sapiens); format: functional;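 note: agonist potency for raising coactivator recruitment to the receptor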
Sequence (P37231 whole entry): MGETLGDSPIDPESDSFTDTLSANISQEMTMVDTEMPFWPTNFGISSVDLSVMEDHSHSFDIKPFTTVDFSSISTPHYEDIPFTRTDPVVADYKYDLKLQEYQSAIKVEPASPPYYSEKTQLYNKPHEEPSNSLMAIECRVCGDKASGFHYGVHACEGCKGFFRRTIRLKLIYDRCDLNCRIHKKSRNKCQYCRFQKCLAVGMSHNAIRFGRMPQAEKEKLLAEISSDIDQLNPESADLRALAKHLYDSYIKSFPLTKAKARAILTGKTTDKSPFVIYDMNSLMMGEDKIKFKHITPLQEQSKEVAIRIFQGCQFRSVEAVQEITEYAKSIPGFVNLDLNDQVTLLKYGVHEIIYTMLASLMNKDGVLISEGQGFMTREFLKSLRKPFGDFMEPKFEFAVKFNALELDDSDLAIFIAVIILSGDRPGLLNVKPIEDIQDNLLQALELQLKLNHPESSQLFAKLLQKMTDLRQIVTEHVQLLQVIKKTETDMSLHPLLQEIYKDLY
Sequence (Q15596 whole entry, further chain): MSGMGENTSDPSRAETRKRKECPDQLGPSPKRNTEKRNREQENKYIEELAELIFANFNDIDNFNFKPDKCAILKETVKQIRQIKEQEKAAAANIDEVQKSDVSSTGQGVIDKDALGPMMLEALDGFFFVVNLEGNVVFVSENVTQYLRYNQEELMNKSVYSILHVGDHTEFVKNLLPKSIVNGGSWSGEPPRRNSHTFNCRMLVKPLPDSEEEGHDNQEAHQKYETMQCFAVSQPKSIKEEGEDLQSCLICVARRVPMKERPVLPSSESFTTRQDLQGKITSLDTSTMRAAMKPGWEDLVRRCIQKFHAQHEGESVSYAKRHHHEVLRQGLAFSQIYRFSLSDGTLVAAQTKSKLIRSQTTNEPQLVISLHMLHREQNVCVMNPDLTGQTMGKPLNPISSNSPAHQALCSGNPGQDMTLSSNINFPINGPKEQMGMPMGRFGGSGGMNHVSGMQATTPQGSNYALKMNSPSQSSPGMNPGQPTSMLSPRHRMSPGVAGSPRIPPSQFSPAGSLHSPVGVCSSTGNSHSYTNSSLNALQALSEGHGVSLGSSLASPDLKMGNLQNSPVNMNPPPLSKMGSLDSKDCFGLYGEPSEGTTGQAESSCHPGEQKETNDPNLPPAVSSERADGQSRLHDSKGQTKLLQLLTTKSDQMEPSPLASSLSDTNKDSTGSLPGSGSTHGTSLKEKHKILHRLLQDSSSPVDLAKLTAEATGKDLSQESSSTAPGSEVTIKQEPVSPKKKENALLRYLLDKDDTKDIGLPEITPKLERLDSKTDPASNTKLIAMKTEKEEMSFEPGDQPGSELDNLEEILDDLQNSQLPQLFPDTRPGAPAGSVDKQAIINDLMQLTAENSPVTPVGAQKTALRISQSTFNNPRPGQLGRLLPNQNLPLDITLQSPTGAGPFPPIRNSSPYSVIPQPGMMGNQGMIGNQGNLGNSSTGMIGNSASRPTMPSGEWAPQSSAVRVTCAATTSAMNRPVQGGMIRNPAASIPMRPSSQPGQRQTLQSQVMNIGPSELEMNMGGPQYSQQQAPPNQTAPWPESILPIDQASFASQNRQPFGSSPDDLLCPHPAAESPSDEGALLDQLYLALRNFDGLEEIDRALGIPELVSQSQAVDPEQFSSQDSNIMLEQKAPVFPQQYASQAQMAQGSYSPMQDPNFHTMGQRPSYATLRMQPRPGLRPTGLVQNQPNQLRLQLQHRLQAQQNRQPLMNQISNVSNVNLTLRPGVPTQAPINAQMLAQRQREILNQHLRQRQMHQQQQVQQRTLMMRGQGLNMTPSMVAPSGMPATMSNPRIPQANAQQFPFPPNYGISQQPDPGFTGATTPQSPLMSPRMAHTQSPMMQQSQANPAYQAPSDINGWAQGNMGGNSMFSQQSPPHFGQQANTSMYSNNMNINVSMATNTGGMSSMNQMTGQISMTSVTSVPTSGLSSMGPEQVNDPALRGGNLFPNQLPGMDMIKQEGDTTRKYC
Measured endpoint: EC50

Sample answers from the record:
• Cc1cc(OCC(=O)Nc2ccc3oc(-c4ccncc4)nc3c2)ccc1Cl = 25.3 µM (not active)
• Cc1ccc(-n2c(N)c(C(=O)N3CCN(C)CC3)sc2=S)cc1 = > 79.4 µM (not active)
• COc1c(OC)c(O)c2c(=O)cc(-c3c(O)cccc3O)oc2c1OC = > 79.4 µM (not active)

--- query ---
# query: EC50 of entry Cc1ccc(N/N=C2/C(=N)N(c3ccccc3)NC2=O)cc1
> 79.4 µM (not active)

* * *

target: DNA dC->dU-editing enzyme APOBEC-3G (Homo sapiens); assay type: functional;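 note: Dose-response counterscreen measuring inhibition of APOBEC3G DNA deaminase activity, run while confirming APOBEC3A inhibitors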
Sequence (Q9HC16 whole entry): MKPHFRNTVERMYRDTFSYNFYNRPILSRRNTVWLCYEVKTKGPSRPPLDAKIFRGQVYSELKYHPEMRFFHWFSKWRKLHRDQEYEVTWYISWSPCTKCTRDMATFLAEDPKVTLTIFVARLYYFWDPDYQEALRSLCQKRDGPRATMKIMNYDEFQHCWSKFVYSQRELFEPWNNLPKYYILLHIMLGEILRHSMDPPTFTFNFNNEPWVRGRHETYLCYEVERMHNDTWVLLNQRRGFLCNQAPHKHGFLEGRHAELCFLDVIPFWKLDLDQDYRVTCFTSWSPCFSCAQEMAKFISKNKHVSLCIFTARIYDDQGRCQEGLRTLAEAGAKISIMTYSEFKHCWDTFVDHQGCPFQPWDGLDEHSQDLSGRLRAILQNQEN
Active and inactive are the calls of the source.
Measured endpoint: IC50

Consider the reported IC50 for these molecules:
* CC(=Nc1cc(C)cc(C)c1)N(C)CCNS(=O)(=O)c1ccc(Cl)cc1 | 4.92 µM (active)
* CCCc1nc2sc3c(SCC(=O)NCc4ccco4)ncnc3c2c2c1CCC2 | 25.3 µM (active)
* COc1ccc2c(/C=C/c3cc[n+](C)cc3)c[nH]c2c1 | 6.31 µM (active)
* O=C(O)Cc1ccc(S(=O)(=O)N2CCCC2)s1 | 66.5 µM (active)
* C[N+]1(C2CCC3CCCC2C3O)CCCCC1 (stereo unspecified) | 2.69 µM (active)

Here is the next item to consider.
Need IC50 of COc1cc(C)c(NC(=O)C2CCN(S(=O)(=O)c3cccs3)CC2)cc1OC , thanks.
13.9 µM (active)

* * *

Biological target: Corticotropin-releasing factor receptor 2/Corticotropin-releasing factor-binding protein (Homo sapiens, UniProt P24387+Q13324)
Sequence (Q13324 whole entry): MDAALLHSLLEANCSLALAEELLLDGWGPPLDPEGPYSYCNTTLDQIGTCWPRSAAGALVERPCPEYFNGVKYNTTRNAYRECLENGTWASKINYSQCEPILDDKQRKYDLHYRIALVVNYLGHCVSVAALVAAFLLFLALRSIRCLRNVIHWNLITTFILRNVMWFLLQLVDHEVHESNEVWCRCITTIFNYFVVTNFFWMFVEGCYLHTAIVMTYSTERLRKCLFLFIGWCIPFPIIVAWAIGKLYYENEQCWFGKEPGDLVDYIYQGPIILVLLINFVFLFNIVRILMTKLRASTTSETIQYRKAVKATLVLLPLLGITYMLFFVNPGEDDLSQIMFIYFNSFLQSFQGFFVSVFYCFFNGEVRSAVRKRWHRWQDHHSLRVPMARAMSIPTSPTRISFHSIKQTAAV
Sequence (P24387 whole entry): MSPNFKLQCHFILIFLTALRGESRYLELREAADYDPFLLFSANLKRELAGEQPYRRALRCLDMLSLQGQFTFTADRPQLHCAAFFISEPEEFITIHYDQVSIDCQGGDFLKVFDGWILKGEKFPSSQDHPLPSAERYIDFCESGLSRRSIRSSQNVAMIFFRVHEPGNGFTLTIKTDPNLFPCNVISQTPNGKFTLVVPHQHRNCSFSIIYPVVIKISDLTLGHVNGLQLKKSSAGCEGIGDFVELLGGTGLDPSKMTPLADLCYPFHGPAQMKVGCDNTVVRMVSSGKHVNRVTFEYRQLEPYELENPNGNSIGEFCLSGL
Assay: activators of CRF receptor 2 with binding protein – uHTS hits, confirmation (AID 602473)
Type: functional
Settings: read-out: EC50_Mean
The source made the active and inactive calls.
Hi! Could you answer with just one of these? label 1 (active), label 0 (inactive)

The examples below pair each entry with its known result.
• CN(C)c1ccc(NC(=O)COC(=O)Cn2nnc3ccccc32)cc1 = label 0
• O=C(CC1SC(N/N=C/C=C/c2ccccc2)=NC1=O)Nc1ccc(Cl)c(Cl)c1 (stereo unspecified) = label 0
• Cc1cc(S(=O)(=O)NC2CCCCC2)ccc1OCC(=O)NCC1CCCO1 (stereo unspecified) = label 0
• O=C(NC1CC1)c1cccc2c1C(=O)c1ccc(N3CCC(Cc4ccccc4)CC3)cc1S2(=O)=O = label 1
• CCN1CCN(CC(=O)N2N=CCC2c2ccccc2)CC1 (stereo unspecified) = label 0

Which outcome was assigned to O=C(CC1C(=O)NCCN1C(=O)Nc1ccccc1)Nc1ccc2c(c1)OCO2 (stereo unspecified) in this test?
label 0

Any idea what this test logged for Cc1c(Cl)ccc2c1NC(=O)C21NC(CCC(N)=O)[C@H]2C(=O)N(c3ccc(Cl)cc3)C(=O)[C@H]21 (stereo partly specified) ?
label 0

Status in this test for COc1ccc(/C=C/c2nc(O)cc(-c3ccccc3)n2)cc1 ?
label 0

Outcome? CCN1CCc2c(sc(NC(=O)c3ccc(S(=O)(=O)N(CC)c4ccccc4)cc3)c2C(N)=O)C1
label 1

Called result for CCOC(=O)c1ccc(NC(=O)c2cccc3c2C(=O)N(CC2CCCO2)C3)cc1 (stereo unspecified)
label 0

Provenance of the data: ChEMBL document CHEMBL1201862
